- Test system: Bacillus subtilis DB104 (SP-AmyQ fusion secretion)
- TEST_METHOD_NOTES: AmyQ secretion efficiency, weighted average sort bin (1 = best secretion, 10 = worst) (bin number (weighted average, 1-10)); higher = lower secretion efficiency
Returns one of fulfilled or not fulfilled; fulfilled when AmyQ secretion efficiency is >= 5.

Asked: Exam item: decide whether the reported AmyQ secretion efficiency for "MKTKTLFIFSAILTFAPNETFAQTA" is at least 5.
Given back: not fulfilled

Asked: Entry to check: "MGLGLLLSVAVAASFMSLSISLPGVQAAEG"
Given back: not fulfilled

Asked: And what about the sequence "MAIIIAIIAAVIVIAALITFNVRNISPG" ?
Given back: fulfilled

Asked: Try this sequence too: "MKLKSKLLLSCLALSTVFVATTIKNAPTH"
Given back: fulfilled

Asked: // next record "MPYLKRVLLLLVTGLFMSLFAVTATSSAQTG"
Given back: not fulfilled

----------
- Tested on: Bacillus subtilis DB104 (SP-AmyQ fusion secretion)
- TEST_METHOD_NOTES: AmyQ secretion efficiency, weighted average sort bin (1 = best secretion, 10 = worst) (bin number (weighted average, 1-10)); higher = lower secretion efficiency
Could you please report measured AmyQ secretion efficiency for the items listed next?

Asked: If you can, please state the reported AmyQ secretion efficiency value of "MKRLFMKASLVLFAVVFVFAVKGAPIKAETH" .
Given back: 2.24

Asked: Now try "MKVPKTMLLSTAAGLLLSLTATSVSIHYV" .
Given back: 5.12

Asked: Thanks! And "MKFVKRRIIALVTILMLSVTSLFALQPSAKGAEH" ?
Given back: 3.59

Asked: And what about the sequence "MRNLTKTSLLLAGLCTAAQMVFVTHTFTFVGASAEES" ?
Given back: 7.25

Asked: Moving on to the next sequence: "MKRFLIGAGVAAVILSGWFIADHQTHVQEM"
Given back: 6.76

Asked: // repeat for "MKIRKILLSSALSFGMLLILTSISAVPALAAGT" and report
Given back: 2.99

Asked: Also check "MKRKLLSSLAISALSLGLLVSAPTASFGAES"
Given back: 3.96

Asked: Entry to check: "MRPVFPLILSAVLFLSCFRASASKR"
Given back: 6.81

Asked: Please give the result for "MKKTSSFNFSSTAFLVFLSVVLVTTVFLVKQQESVAQAKQL" too.
Given back: 2.65

Asked: Now give it for "MKRITINIITMFIAAAVIVFSLTGTAEAAEK" too.
Given back: 2.39

Asked: What about this sequence? "MKLAKRVSALTPSTTLAITEKAKEL"
Given back: 7.31

Asked: Now the sequence "MTKKAWFLPLVCVLLISGWLAPAASASNQTT"
Given back: 2.2

Asked: One more sequence: "MKRFILVLSFLSIIVAYPIQSNASPM"
Given back: 5.96

----------
- Tested on: Bacillus subtilis DB104 (SP-AmyQ fusion secretion)
- TEST_METHOD_NOTES: AmyQ secretion efficiency, weighted average sort bin (1 = best secretion, 10 = worst) (bin number (weighted average, 1-10)); higher = lower secretion efficiency
Provide the recorded AmyQ secretion efficiency for the entries that follow.
# answer = number (no unit)

Asked: Can you share its AmyQ secretion efficiency? I mean this sequence: "MNLRKILLSSALSLGMLVSAAPVLATSE"
Given back: 1.92

Asked: Now the same for "MTMLRKIIGWILLLCIIKKRRRRVIASGKEV"
Given back: 7.19

Asked: Input "MKRSSGKQLIGIMLLTFAPSAFAKQD"
Given back: 3.5

Asked: Okay, and "MKKRITYSLLALLAVVAFAFTDSSKAKKAEA" ?
Given back: 4.79

Asked: Do the same for "MKRLFMKAKLVLFAVVFVFAVKGAPAKAETH" please
Given back: 2.67

Asked: What would you report for "MKVLLSALLLLLFAFEPSASCKKL" ?
Given back: 4.65

Asked: Query "MKLSVKIAGVLTVAAAAMTAKMYATRKGN" next
Given back: 7.91

----------
Kindly supply the reported AmyQ secretion efficiency values for the records listed here.
- Test system: Bacillus subtilis DB104 (SP-AmyQ fusion secretion)
- TEST_METHOD_NOTES: AmyQ secretion efficiency, weighted average sort bin (1 = best secretion, 10 = worst) (bin number (weighted average, 1-10)); higher = lower secretion efficiency

Asked: Form field: reported AmyQ secretion efficiency of "MPYLKRVLLLLVTGLFMSLFAVTATFSAQTG"
Given back: 4.6

Asked: Moving on to "MLKKKWMVGLLAGCLAAGGFSYNHFATEN"
Given back: 6.62

Asked: Another sequence to check: "MKSKGSIMACLILFSFTITTFINTETESAFSN"
Given back: 7.01

Asked: Another sequence to look at: "MVKKWLIMFAVMLGVLMTFTYSASAVGV"
Given back: 1.93

Asked: Next sequence: "MRSYIKVRRRCRRRLILFVPTALADNS"
Given back: 6.04

Asked: Also "MKKLVLCVSILAVILSGVGLTQLS" ?
Given back: 5.94

Asked: Can you check "MKKAAAVLLSLGLVFGFSYGAGHVAETKTK" next?
Given back: 5.95

Asked: Now this one: "MKNMSCKLVVSVTLFFSFLRKKKKKAHAQNS"
Given back: 6.96

Asked: Lookup "MKSRTIWTIILGALLVCSAASSCIAVAYTLTKSQAGASSS"
Given back: 6.64

Asked: # repeat for "MKRIRIPMTLALGAALTIAPLDEEDDDASAEEN"
Given back: 5.27

Asked: Another sequence to look at: "MHLIRAAGAVCLAVVLIAGCRFNEDQHQAENENT"
Given back: 5.95

Asked: # repeat for "MKKSMLAAAVLLSLGLVFGFSYGAGHVAEAKTK"
Given back: 2.84

Asked: Also need "MKVLLSALLLLLFAFGPSASGKKL" , thanks.
Given back: 5.45

Asked: "MLCVMMLLFSAIASFPVSRQAKDQ" , same question.
Given back: 7.53

Asked: Here is the next sequence: "MKSKGSIMACLILFLFMIFTFINTETISAFSN"
Given back: 5.32

Asked: Cool, now "MKKRKKKSLLALLAVVAFAFTDSSKAKAAEA"
Given back: 2.95

Asked: Input "MTGSLLSSLAISALSLGLLVSAPTASFAAES"
Given back: 5.96

Asked: Would you mind doing "MSNLCVMMLLFSAIASFPVSAQAKDQ" as well?
Given back: 3.93

Asked: Repeat for the following sequence: "MPYLKRVRRRRRRGLFMSLFAVTATASAQTG"
Given back: 6.28

Asked: Another: "MNKKYQTGQVCIIFTSALFPTFSSVTAAQG"
Given back: 3.64

Asked: Same question for "MRNLTKTSLLLAGLCTAARRKKKKHASAEES" please.
Given back: 7.09

Asked: What about this sequence? "MTMLRKIIGWILLLCIIDDDEEDVIASGKEV"
Given back: 5.3

Asked: How about "MKNMSCKLVVSVTLFFSFLTIGPLAHYQNS" ?
Given back: 6.66

Asked: Now this one: "MRKKCSSMSFTSVCLWILVLLLSCLSGKSAYAATS"
Given back: 3

Asked: For "MMKKGRSRQQLTATVLFGTCAVDVPGIISPKTAEAASQ" then?
Given back: 7.68

Asked: Now this one: "MNLRKILLSSALSLGMLVSAAPVLSTSS"
Given back: 4.72

Asked: Try the sequence "MKKRKVMLATALFLGLTPAGANAADL"
Given back: 4.31

Asked: Check "MRFTKVVGFLSVLGLAAVFPLTAQARKR" too.
Given back: 7.26

----------
So I've got a bunch of sequences here, and I need their AmyQ secretion efficiency values.
- Test system: Bacillus subtilis DB104 (SP-AmyQ fusion secretion)
- TEST_METHOD_NOTES: AmyQ secretion efficiency, weighted average sort bin (1 = best secretion, 10 = worst) (bin number (weighted average, 1-10)); higher = lower secretion efficiency
Please reply with the value in numeric form only.

Asked: So what does the record say about AmyQ secretion efficiency for "MRSKKLWISLLFALTLIFTMAFSNMSVVTGAQAAGK" ?
Given back: 2.11

Asked: Try this sequence too: "MRKRRKRGIQAFAGGIILATAVLAAVFYLTDEDQAAAV"
Given back: 6.73

Asked: Would you kindly repeat that for "MKVLLSALLLLLFAFFEPSASGKKL" ?
Given back: 6.51

Asked: Queued: "MRSYIKVLTMCFLGLILFVPTILADNS"
Given back: 2.6

Asked: Check "MPYLKRVLLLLVTGLFMSLFAVTATASDQTG" too.
Given back: 1.01

Asked: What do you have for "MRKKLKWLSFLLGFIILLFLFKKRKKRFSNNDS" ?
Given back: 7.3

Asked: Another sequence: "MKSKGSIMACLILFSFTTFINTETISAFSN"
Given back: 4.68

Asked: Same thing, different sequence: "MFNLQVMLALTAAAGLGLTALHSAPAAKAAPL"
Given back: 3.11

Asked: Entry "MKKQQYGQSKKVVLGSTLFAGAASAQSI" please
Given back: 7.51

Asked: Cool, now "MKLKKRVSMSSMFLVALTMCGGLFVTPAKAVKT"
Given back: 1.95

Asked: Can you check "MLTLRTLCVLMILSGVIFFGLKIDAKDI" next?
Given back: 6.18

Asked: Repeat with "MAIIIAIIAAVIVIAALITFNVGNASPG"
Given back: 5.7

Asked: Cool, now "MRKNRILALFVLSLGLLRRKVTPVSAASK"
Given back: 7.91

Asked: Param item: "MLTKRLLTIYIMLLGLIAWFPGAAQAATP"
Given back: 2.42

Asked: What about this sequence? "MLKKIALTLCPAIVGSLLFFTAPKSAHVS"
Given back: 5.03

Asked: Same lookup for "MKRSISRRRKCLLITLLTMGGMIASPASAAGT" , please.
Given back: 2.97

Asked: Then what about the sequence "MKLAKRGKSYYPYTSLAITAKAKEL" ?
Given back: 8.51

Asked: Same again, this time with "MKKRLIGFLVLVPALIMSGITLIEWNKK"
Given back: 3.04

Asked: Proceed to "MKKRFFGPIILAFILFRRRAIAIPS"
Given back: 7.49

Asked: Now the sequence "MLKRLIAPMLLSAASLAFFAMSGSAQAAAY"
Given back: 3.75

Asked: Another: "MNLRKILLSSALSLGMLVSAAPVLDTSS"
Given back: 6.16

Asked: Consider next the sequence "MSGSTLIILALFVLSLGLLSFMVTPVSAASK" in the same way.
Given back: 4.39

Asked: Same read-out for "MKRFILVLSFLSIIVKKRIQTNASPM" ?
Given back: 7.76

Asked: Again, but for "MLRITINIITMFIAAAVISLTGTAEAAEK"
Given back: 3.59

Asked: Next record, please: "MRSKKTWISLLFALTLIFTMAFSNMSAQAAGK"
Given back: 3.25

Asked: Field entry: "MLKKIALTLCPAIVGSLLFFTAPESAHVS"
Given back: 5.94

Asked: Continue with "MLKKIALTLCPAIVGSLLFFTAPASAHEE"
Given back: 2.4

Asked: Again, but for "MKLRKVRRRKKRSLGLLVSASPAFATSP"
Given back: 8.72
